These data points were gathered from ChEMBL document CHEMBL1201862.

system: CCRF-CEM; test: NCI tumour cell line growth inhibition, 48 h
The source made the active and inactive calls. Rule as the data show it: active = GI50 up to about 1.1 µM and inactive = higher.
Select the matching outcome among true (1) = active, false (0) = inactive

Ask: Give the logged outcome of this assay for the following molecule: `CC(C)C(=O)C(C)(C)CCc1ccccn1`
Reply: false (0)

Ask: Give the logged outcome of this assay for the following molecule: O=C(Nc1nnc(-c2ccccc2)o1)C(SC(=S)N1CCCC1)c1ccccc1 (stereo not given)
Reply: false (0)

Ask: Give the logged outcome of this assay for the following molecule: `NCC1CCCCC1.O=C(O)NCC1CCCCC1`
Reply: false (0)

Ask: Give the logged outcome of this assay for the following molecule: O=C(O)CC(C(=O)O)c1ccccc1[N+](=O)[O-] (stereo not given)
Reply: false (0)

Ask: Give the logged outcome of this assay for the following molecule: `CC(=O)c1ccc(Nc2nc3ccccc3c3occc23)cc1`
Reply: false (0)

Ask: Give the logged outcome of this assay for the following molecule: COc1cc(C2SCC(=O)N2c2ccc(-n3c(-c4ccccc4)nc4ccccc4c3=O)cc2)ccc1O (stereo not given)
Reply: false (0)

* * *

tested on: OVCAR-8; assay: NCI tumour cell line growth inhibition, 48 h
Active and inactive are the calls of the source. Rule as the data show it: active = GI50 up to about 1.1 µM and inactive = higher.
Recorded metric: GI50

NNC(=O)C(=O)N/N=C1/CCCC1C(=O)CCC(=O)Nc1ccc(Cl)cc1 (centres undefined) | > 100 µM (inactive)
CCOc1ccccc1Nc1nc(C)c(C(=O)CC(=O)C(=O)Nc2ccccc2)s1 | 78.9 µM (inactive)
CSc1nc2nccnc2c(=O)[nH]1 | > 100 µM (inactive)

Turning now to a further record.
Ask: GI50 for `O=C(O)CCSC(=O)Nc1ccc([N+](=O)[O-])cc1` ?
Reply: > 100 µM (inactive)

* * *

tested on: SK-OV-3; test: NCI tumour cell line growth inhibition, 48 h
Calls of active or inactive are those of the source. Cut-off read from the data, not from the text of the source: active = GI50 up to about 1.1 µM and inactive = higher.
Recorded metric: GI50

Previously resolved entries follow.
C=C1C(=O)OC2CC(C)C(/C=C/C(C)=O)=CCC12 (centres undefined) | > 100 µM (inactive)
CC(C)(C)c1cc2c(c(C(C)(C)C)c1O)CC(=O)O2 | 48.8 µM (inactive)

Ask: Identify the measured GI50 of COc1ccc(C(C)NNC(=O)c2ccncc2)cc1OC (centres undefined) for SK-OV-3.
Reply: 26.4 µM (inactive)

Ask: Identify the measured GI50 of `Cc1ccc(S(=O)(=O)Nn2c(S)c(C#N)c(-c3ccc(N(C)C)cc3)c(C#N)c2=O)cc1` for SK-OV-3.
Reply: 48.8 µM (inactive)

* * *

tested on: SN12C; test: NCI tumour cell line growth inhibition, 48 h
Active and inactive are the calls of the source. No stated cut-off is given here; in the data, active = GI50 up to about 1.1 µM and inactive = higher.
Select the matching outcome among true (1) (active), false (0) (inactive)

Worked set:
Cc1cc(NS(=O)(=O)c2ccc(NC(=O)c3cccc4c(Nc5ccc(S(N)(=O)=O)cc5)c5ccccc5nc34)cc2)no1 | false (0)
Cc1ccc(NC(=O)CC(=O)n2nc(-c3ccccc3)c(/N=N/c3ccc(Cl)cc3)c2-c2ccccc2)cc1 | false (0)
CCC1C(c2cc(OC)c(OC)c(OC)c2)c2cc3c(cc2OC1N1CCOCC1)OCO3 (stereo not drawn) | false (0)
Cc1ccccc1-c1nc2c(C(=O)NCCN(C)C)cccc2[nH]1 | false (0)
O=C(NCC(O)COc1ccccc1)c1ccccc1O (stereo not drawn) | false (0)

Ask: Give the logged outcome of this assay for the following compound: OC1CN(OC/C=C/c2ccccc2)CC(O)C1O (stereo not drawn)
Reply: false (0)

Ask: Give the logged outcome of this assay for the following compound: `COc1cc(C#CC(=O)OC/C=C/c2ccc3c(c2)OCO3)cc(OC)c1OC`
Reply: false (0)

Ask: Give the logged outcome of this assay for the following compound: COc1cc2c(c(OC3OC(CO)C(O)C(O)C3O)c1)C(=O)CC(c1ccc(O)cc1)O2 (stereo not drawn)
Reply: false (0)

Ask: Give the logged outcome of this assay for the following compound: `NCCc1ccc(S(=O)(=O)O)cc1[N+](=O)[O-]`
Reply: false (0)
